# ASSAYED TARGET: furin, P09958;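 note: purified furin at 1:10 enzyme:substrate in 50 mM HEPES pH 7.5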
# Sequence (P09958 whole entry): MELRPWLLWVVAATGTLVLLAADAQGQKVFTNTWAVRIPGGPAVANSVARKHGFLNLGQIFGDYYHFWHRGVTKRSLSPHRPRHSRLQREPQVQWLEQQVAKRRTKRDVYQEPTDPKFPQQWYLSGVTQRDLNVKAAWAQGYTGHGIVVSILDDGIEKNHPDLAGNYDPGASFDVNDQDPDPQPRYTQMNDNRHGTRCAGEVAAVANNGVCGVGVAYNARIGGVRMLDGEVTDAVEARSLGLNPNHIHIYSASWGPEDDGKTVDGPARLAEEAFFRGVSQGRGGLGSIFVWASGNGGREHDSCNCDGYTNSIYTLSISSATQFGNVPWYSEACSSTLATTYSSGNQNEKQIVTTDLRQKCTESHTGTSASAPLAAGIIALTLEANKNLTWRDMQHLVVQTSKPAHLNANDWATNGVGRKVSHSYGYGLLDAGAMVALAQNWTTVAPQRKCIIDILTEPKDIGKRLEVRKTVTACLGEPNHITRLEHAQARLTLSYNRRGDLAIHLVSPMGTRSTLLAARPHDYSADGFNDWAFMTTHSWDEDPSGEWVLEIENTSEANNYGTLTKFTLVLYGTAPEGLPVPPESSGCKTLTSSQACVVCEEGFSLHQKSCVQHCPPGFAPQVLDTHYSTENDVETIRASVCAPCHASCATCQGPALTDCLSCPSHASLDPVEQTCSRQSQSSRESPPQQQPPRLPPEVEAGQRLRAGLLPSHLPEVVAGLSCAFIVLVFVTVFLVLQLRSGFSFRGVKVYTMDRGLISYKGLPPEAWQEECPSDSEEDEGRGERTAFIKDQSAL
# TEST PROTOCOL: furin cleavage Z-score vs untreated control; higher = more cleavage, active = 3.5 or more, inactive = 1 or less, 8 variable residues between constant flanks
# MEASUREMENT CONTEXT: 30 min
This is one part of the list. The hit rate among all sequences tested is not known here.
List of furin cleavage Z-score values.

CARAQRSAGAAGNASASA [FS-1994]: 1.56
CARPRRSAGKAGNASASA [FS-2059]: 6.48 (active)
CARRKRKGSDAGNASASA [FS-2451]: 1.02

Give the measured furin cleavage Z-score for CAIRTEEAIYAGNASASA [HC1487]
-0.877 (inactive)

Consider the sequence CALDGVRLHRAGNASASA [HC1223] . State its measured furin cleavage Z-score.
-0.00108 (inactive)

Specify reported furin cleavage Z-score for the sequence shown: CASPPVVPQSAGNASASA [HC768]
-0.882 (inactive)
